- measured-target: aggregated tau (4R-tau) in PSP brain tissue homogenates (Homo sapiens, UniProt P10636)
- Construct: from tissue
- Sequence (P10636 1-441 isoform P10636-8): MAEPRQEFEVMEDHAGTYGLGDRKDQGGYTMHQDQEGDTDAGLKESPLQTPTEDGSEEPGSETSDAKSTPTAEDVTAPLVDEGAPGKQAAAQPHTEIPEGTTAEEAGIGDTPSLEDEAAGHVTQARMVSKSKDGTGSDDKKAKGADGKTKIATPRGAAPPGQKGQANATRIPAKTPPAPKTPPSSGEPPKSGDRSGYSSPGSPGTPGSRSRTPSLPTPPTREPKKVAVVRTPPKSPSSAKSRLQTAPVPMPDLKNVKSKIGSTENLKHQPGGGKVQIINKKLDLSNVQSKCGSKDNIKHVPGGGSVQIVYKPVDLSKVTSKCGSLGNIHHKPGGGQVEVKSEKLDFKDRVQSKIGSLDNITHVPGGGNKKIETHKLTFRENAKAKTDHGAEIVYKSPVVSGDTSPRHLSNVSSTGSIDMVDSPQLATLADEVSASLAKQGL
- assay-name: In vitro competition (Ki) assay versus [^3H]7, PSP brain tissue homogenate
- Assay type: binding
- settings: radioligand [^3H]7 ∼1 nM
pKi: −log10 of the molar value.
readout-type: pKi

[[record]]
molecule = "Fc1ccc2cc(-c3cnc(N4CCC(F)(F)CC4)nc3)[nH]c2c1 [Compound 23]"
measured_target = "aggregated tau (4R-tau) in PSP brain tissue homogenates (Homo sapiens, UniProt P10636)"
readout_type = "pKi"
observed_result = 7.64

[[record]]
molecule = "Cn1c(-c2cnc(N3CCOCC3)nc2)cc2ccc(F)cc21 [Compound 109]"
measured_target = "aggregated tau (4R-tau) in PSP brain tissue homogenates (Homo sapiens, UniProt P10636)"
readout_type = "pKi"
observed_result = 7.49

[[record]]
molecule = "O[C@H]1CCN(c2ccc(-c3cc4ccc(F)cc4[nH]3)cn2)C1 [Compound 9, reference compound]"
measured_target = "aggregated tau (4R-tau) in PSP brain tissue homogenates (Homo sapiens, UniProt P10636)"
readout_type = "pKi"
observed_result = 8.05

[[record]]
molecule = "Fc1ccc2cc(-c3cnc(N4CCOCC4)nc3)[nH]c2c1 [Compound 8]"
measured_target = "aggregated tau (4R-tau) in PSP brain tissue homogenates (Homo sapiens, UniProt P10636)"
readout_type = "pKi"
observed_result = 7.89

[[record]]
molecule = "OC1CCN(c2ncc(-c3cc4ccccc4[nH]3)cn2)CC1 [Compound 52]"
measured_target = "aggregated tau (4R-tau) in PSP brain tissue homogenates (Homo sapiens, UniProt P10636)"
readout_type = "pKi"
observed_result = 7.62

[[record]]
molecule = "OC1CCN(c2ncc(-c3cc4ccc(F)cc4[nH]3)cn2)CC1 [Compound 7]"
measured_target = "aggregated tau (4R-tau) in PSP brain tissue homogenates (Homo sapiens, UniProt P10636)"
readout_type = "pKi"
observed_result = 7.62

[[record]]
molecule = "OC1CCN(c2ncc(-c3cc4cc(F)ccc4o3)cn2)CC1 [Compound 49]"
measured_target = "aggregated tau (4R-tau) in PSP brain tissue homogenates (Homo sapiens, UniProt P10636)"
readout_type = "pKi"
observed_result = 7.04

[[record]]
molecule = "N#Cc1ccc2cc(-c3cnc(N4CC(O)C(F)C4)nc3)[nH]c2c1 (stereo not shown) [Compound 24]"
measured_target = "aggregated tau (4R-tau) in PSP brain tissue homogenates (Homo sapiens, UniProt P10636)"
readout_type = "pKi"
observed_result = 6.89

[[record]]
molecule = "OC1CCN(c2ncc(-c3cc4cc(F)ccc4[nH]3)cn2)CC1 [Compound 53]"
measured_target = "aggregated tau (4R-tau) in PSP brain tissue homogenates (Homo sapiens, UniProt P10636)"
readout_type = "pKi"
observed_result = 7.70

[[record]]
molecule = "OC1CN(c2ncc(-c3cc4ccccc4[nH]3)cn2)CC1F (stereo not shown) [Compound 28]"
measured_target = "aggregated tau (4R-tau) in PSP brain tissue homogenates (Homo sapiens, UniProt P10636)"
readout_type = "pKi"
observed_result = 7.49

